# tested_on: Voltage-dependent T-type calcium channel subunit alpha-1H (Homo sapiens, UniProt O95180)
# Sequence (O95180 whole entry): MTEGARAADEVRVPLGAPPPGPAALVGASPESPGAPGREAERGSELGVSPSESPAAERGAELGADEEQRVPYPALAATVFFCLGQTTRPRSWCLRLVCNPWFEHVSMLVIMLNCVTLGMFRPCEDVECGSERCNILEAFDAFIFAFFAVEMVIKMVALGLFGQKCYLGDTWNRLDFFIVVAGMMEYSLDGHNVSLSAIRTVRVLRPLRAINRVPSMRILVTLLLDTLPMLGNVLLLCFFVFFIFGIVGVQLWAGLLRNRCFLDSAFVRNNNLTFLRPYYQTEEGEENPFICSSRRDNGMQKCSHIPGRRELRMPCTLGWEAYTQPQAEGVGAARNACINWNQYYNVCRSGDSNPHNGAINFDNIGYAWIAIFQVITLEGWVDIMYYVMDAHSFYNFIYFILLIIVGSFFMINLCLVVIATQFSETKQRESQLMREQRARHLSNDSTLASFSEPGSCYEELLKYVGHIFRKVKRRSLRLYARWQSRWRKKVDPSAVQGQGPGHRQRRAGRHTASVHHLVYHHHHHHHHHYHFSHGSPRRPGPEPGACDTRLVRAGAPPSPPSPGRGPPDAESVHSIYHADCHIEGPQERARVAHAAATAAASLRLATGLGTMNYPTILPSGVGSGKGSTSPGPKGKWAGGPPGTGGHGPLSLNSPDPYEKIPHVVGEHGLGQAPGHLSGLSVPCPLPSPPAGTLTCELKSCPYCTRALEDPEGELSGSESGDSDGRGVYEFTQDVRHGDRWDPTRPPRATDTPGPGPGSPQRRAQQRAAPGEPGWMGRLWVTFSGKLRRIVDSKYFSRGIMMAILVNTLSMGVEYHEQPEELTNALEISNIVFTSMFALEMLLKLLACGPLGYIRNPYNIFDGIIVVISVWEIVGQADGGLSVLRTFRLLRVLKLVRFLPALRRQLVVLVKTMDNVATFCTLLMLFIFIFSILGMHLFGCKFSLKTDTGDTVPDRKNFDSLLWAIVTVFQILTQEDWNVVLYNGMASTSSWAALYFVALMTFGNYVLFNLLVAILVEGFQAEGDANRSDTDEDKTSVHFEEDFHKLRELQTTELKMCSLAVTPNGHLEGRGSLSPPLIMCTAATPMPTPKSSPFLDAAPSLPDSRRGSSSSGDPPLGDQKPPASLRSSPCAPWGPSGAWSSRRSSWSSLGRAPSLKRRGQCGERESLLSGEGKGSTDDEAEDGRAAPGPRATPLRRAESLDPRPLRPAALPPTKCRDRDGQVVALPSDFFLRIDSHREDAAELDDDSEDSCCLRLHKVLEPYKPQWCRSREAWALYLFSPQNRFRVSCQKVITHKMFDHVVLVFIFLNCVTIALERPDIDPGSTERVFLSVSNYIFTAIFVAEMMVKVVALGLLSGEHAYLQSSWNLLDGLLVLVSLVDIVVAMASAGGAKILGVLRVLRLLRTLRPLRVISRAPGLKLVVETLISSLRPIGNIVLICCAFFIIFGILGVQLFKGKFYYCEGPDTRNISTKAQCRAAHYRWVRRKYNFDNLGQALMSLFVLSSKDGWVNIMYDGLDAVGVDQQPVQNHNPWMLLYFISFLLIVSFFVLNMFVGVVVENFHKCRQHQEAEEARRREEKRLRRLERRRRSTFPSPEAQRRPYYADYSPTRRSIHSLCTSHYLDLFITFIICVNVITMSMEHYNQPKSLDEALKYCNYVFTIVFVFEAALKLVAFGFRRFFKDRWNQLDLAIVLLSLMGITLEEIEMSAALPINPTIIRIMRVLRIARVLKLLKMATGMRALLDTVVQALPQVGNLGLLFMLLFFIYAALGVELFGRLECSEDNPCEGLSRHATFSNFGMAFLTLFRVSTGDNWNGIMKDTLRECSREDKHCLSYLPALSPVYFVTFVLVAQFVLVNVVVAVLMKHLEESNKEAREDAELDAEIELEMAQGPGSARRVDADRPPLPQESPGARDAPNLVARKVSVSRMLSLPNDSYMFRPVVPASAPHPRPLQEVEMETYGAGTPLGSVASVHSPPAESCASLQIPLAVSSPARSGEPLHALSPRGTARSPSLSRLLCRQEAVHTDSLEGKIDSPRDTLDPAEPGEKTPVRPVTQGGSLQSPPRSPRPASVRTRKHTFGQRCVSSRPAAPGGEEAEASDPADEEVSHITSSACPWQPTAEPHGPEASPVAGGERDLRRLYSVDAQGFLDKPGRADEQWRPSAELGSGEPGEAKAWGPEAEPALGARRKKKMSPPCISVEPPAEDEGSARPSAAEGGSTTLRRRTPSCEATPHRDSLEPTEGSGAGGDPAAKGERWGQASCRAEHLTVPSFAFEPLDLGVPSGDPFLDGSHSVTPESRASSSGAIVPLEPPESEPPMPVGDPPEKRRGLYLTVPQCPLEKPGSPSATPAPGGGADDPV
# protocol_summary: Inhibition of human Cav3.2 expressed in tsA-201 cells by patch clamp electrophysiology
Here the recorded IC50 is given for each entry.
Give just the numeric value; µM need not be written.

Consider the worked cases shown below.
{"compound": "CN(C)CCCCCSC1=Nc2ccccc2C(CC(=O)NCc2ccccc2)N1c1ccc(-c2ccc(F)cc2)cc1 (centres undefined)", "IC50 / µM": 4.18}
{"compound": "CN(C)CCCCCSC1=Nc2ccccc2C(CC(=O)NCc2ccc(F)cc2)N1c1ccc(-c2ccccc2)cc1 (centres undefined)", "IC50 / µM": 3.14}
{"compound": "O=C(CC1c2ccccc2N=C(SCCCCCN2CCCC2)N1c1ccc(-c2ccc(F)cc2)cc1)NCc1ccc(F)cc1 (centres undefined)", "IC50 / µM": 4.88}

Proceed to the following item.
Prompt: What measured IC50 goes with CN(C)CCCCCSC1=Nc2ccccc2C(CC(=O)NCc2ccccc2)N1c1ccccc1 (centres undefined) ?
Completion: 13.8

----------
# System: HCT-116
# protocol_summary: Cytotoxicity against human HCT116 cells assessed as reduction in cell viability after 48 hrs by MTT assay
# Format: functional, cell-based
# measurement_conditions: HCT-116, 48 h
property: IC50 (µM)
Give just the numeric value; µM need not be written.

Consider the worked cases shown below.
{"compound": "O=C(CC1c2ccccc2N=C(SCCCCCN2CCCC2)N1c1ccc(-c2ccc(F)cc2)cc1)NCc1ccc(F)cc1 (stereo not drawn)", "property": "IC50", "test_value": 7.7}
{"compound": "CN(C)CCCCCSC1=Nc2ccccc2C(CC(=O)NCc2ccc(F)cc2)N1c1ccc(-c2ccc(F)cc2)cc1 (stereo not drawn)", "property": "IC50", "test_value": 9.3}
{"compound": "O=C(CC1c2ccccc2N=C(SCCCCCN2CCCC2)N1c1ccc(-c2ccccc2)cc1)NCc1ccc(F)cc1 (stereo not drawn)", "property": "IC50", "test_value": 6.2}

Prompt: What measured IC50 goes with CN(C)CCCCCSC1=Nc2ccccc2C(CC(=O)NCc2ccccc2)N1c1ccc(-c2ccccc2)cc1 (stereo not drawn) ?
Completion: 9.6

Prompt: Same question, CN(C)CCCCCN(C)C1=Nc2ccccc2C(CC(=O)NCc2ccccc2)N1c1ccc(-c2ccccc2)cc1 (stereo not drawn) this time
Completion: 5.6

Prompt: Same question, CN(C)CCCCCSC1=Nc2ccccc2C(CC(=O)NCc2ccccc2)N1c1ccccc1 (stereo not drawn) this time
Completion: 38.8

Prompt: Same question, O=C(CC1c2ccccc2N=C(SCCCCCN2CCCC2)N1c1ccccc1)NCc1ccccc1 (stereo not drawn) this time
Completion: 31.3

Prompt: Same question, CN(C)CCCCCSC1=Nc2ccccc2C(CC(=O)NCc2ccc(F)cc2)N1c1ccc(-c2ccccc2)cc1 (stereo not drawn) this time
Completion: 6.4

----------
# Tested on: A549
# protocol_summary: Cytotoxicity against human A549 cells assessed as reduction in cell viability after 48 hrs by MTT assay
# Type: functional, cell-based
# measurement_conditions: A549, 48 h
Here the recorded IC50 is given for each entry.

Consider the worked cases shown below.
{"molecule": "O=C(CC1c2ccccc2N=C(SCCCCCN2CCCC2)N1c1ccc(-c2ccccc2)cc1)NCc1ccc(F)cc1 (centres undefined)", "property": "IC50", "test_value": "19.8 µM"}
{"molecule": "O=C(CC1c2ccccc2N=C(SCCCCCN2CCCC2)N1c1ccccc1)NCc1ccccc1 (centres undefined)", "property": "IC50", "test_value": "98.1 µM"}
{"molecule": "O=C(CC1c2ccccc2N=C(SCCCCCN2CCCC2)N1c1ccccc1)NCc1ccc(F)cc1 (centres undefined)", "property": "IC50", "test_value": "89.9 µM"}

Prompt: What measured IC50 goes with CN(C)CCCCCSC1=Nc2ccccc2C(CC(=O)NCc2ccc(F)cc2)N1c1ccc(-c2ccccc2)cc1 (centres undefined) ?
Completion: 5 µM
